# Tested on: mouse liver microsomal lipid peroxidation
# Test Protocol: Inhibition of mouse liver microsomal lipid peroxidation (LP)
# Condition Label: read-out: LP IC50 Value; 45 min incubation
Cut-off 30 µM on IC50: below means 1 (yes), at or above means 0 (no).

CC(C)(C)c1cc(C(=O)N2CC(c3ccc(-c4ccccc4)cc3)Sc3ccccc32)cc(C(C)(C)C)c1O (stereo not drawn) [Compound 15]	0 (no)
CC(C)(C)c1cc(C(=O)N2CCSC(c3ccc(-c4ccccc4)cc3)C2)cc(C(C)(C)C)c1O (stereo not drawn) [Compound 5]	0 (no)

Q: State whether 30 µM exceeds IC50 recorded for O=C(c1cccnc1)N1CCSC(c2ccc(-c3ccccc3)cc2)C1 (stereo not drawn) [Compound 9] .
A: 0 (no)

Q: Does the reported IC50 of O=C(c1cc(O)c(O)c(O)c1)N1CCSC(c2ccc(-c3ccccc3)cc2)C1 (stereo not drawn) [Compound 3] stay below 30 µM?
A: 1 (yes)

Q: Lab note: confirm whether the reported IC50 for this molecule is below 30 µM, equality not counting. molecule: CC(C)(C)c1cc(/C=C/C(=O)N2CCSC(c3ccc(-c4ccccc4)cc3)C2)cc(C(C)(C)C)c1O (stereo not drawn) [Compound 6]
A: 0 (no)

Q: Bench note: check whether O=C(c1cc(O)c(O)c(O)c1)N1CC(c2ccc(-c3ccccc3)cc2)Sc2ccccc21 (stereo not drawn) [Compound 13] shows IC50 below 30 µM
A: 1 (yes)

Q: Just wondering, is IC50 of O=C(/C=C/c1ccccc1)N1CCSC(c2ccc(-c3ccccc3)cc2)C1 (stereo not drawn) [Compound 8] below 30 µM?
A: 0 (no)

Q: hey, is IC50 for COc1cc(/C=C/C(=O)N2CCSC(c3ccc(-c4ccccc4)cc3)C2)ccc1O (stereo not drawn) [Compound 1] lower than 30 µM or not?
A: 1 (yes)
